# experimentSummary: Analytical size exclusion chromatography (percent monomer)
# Assay type: physicochemical
# settings: NEM-conjugated cysteine variants; SEC, Abs280 monomer region 5.5-6 minutes vs oligomer region 4-5.3 minutes
Entries and their Percent monomer
metric: Percent monomer (%)

[[record]]
molecule = "Y78C (conjugate, left off: small tags and cut ends) LPAPKNLVVSEVTEDSARLSWDDPWAFYESFLIQYQESEKVGEAIVLTVPGSERSYDLTGLKPGTEYTVSIYGVHNVCKDTNMRGLPLSAIFTT"
metric = "Percent monomer"
unitabbreviation = "%"
assayvalue = 90

[[record]]
molecule = "E53C: cysteine variant of P54AR4-83v2 (SEQ ID NOS: 204 and 242); NEM and VC-MMAF conjugates (conjugate, NEM or vcMMAF conjugate; EGFR binding FN3 domain, NEM and VC-MMAF conjugates) MLPAPKNLVVSEVTEDSARLSWDDPWAFYESFLIQYQESEKVGEAIVLTVPGSCRSYDLTGLKPGTEYTVSIYGVHNVYKDTNMRGLPLSAIFTT"
metric = "Percent monomer"
unitabbreviation = "%"
assayvalue = 97

[[record]]
molecule = "D23C (conjugate, left off: small tags and cut ends) LPAPKNLVVSEVTEDSARLSWDCPWAFYESFLIQYQESEKVGEAIVLTVPGSERSYDLTGLKPGTEYTVSIYGVHNVYKDTNMRGLPLSAIFTT"
metric = "Percent monomer"
unitabbreviation = "%"
assayvalue = 100

[[record]]
molecule = "P4C (conjugate, left off: small tags and cut ends) LPACKNLVVSEVTEDSARLSWDDPWAFYESFLIQYQESEKVGEAIVLTVPGSERSYDLTGLKPGTEYTVSIYGVHNVYKDTNMRGLPLSAIFTT"
metric = "Percent monomer"
unitabbreviation = "%"
assayvalue = 100

[[record]]
molecule = "N76C (conjugate, left off: small tags and cut ends) LPAPKNLVVSEVTEDSARLSWDDPWAFYESFLIQYQESEKVGEAIVLTVPGSERSYDLTGLKPGTEYTVSIYGVHCVYKDTNMRGLPLSAIFTT"
metric = "Percent monomer"
unitabbreviation = "%"
assayvalue = 94

[[record]]
molecule = "S16C: cysteine variant of P54AR4-83v2 (SEQ ID NOS: 194 and 232); NEM and VC-MMAF conjugates (conjugate, NEM or vcMMAF conjugate; EGFR binding FN3 domain, NEM and VC-MMAF conjugates) MLPAPKNLVVSEVTEDCARLSWDDPWAFYESFLIQYQESEKVGEAIVLTVPGSERSYDLTGLKPGTEYTVSIYGVHNVYKDTNMRGLPLSAIFTT"
metric = "Percent monomer"
unitabbreviation = "%"
assayvalue = 75

